Reference source: patent EP0550016A1

System: Escherichia coli OTEM
Test: In vitro anti-bacterial activity test (MIC, two-fold dilution method) against the standard strains
Format: cell-based
Details: Table 1 strain 10: Escherichia coli OTEM
Item-by-item account of MIC
The reply should be a number in µg/mL, with the unit left off.

Value of measured MIC for the entry NCC1CC12CCN(c1c(F)cc3c(=O)c(C(=O)O)cn(C4CC4)c3c1F)C2 (stereo not drawn) [Example 15] : 0.098

Value of measured MIC for the entry O=C(O)c1cn(C2CC2)c2cc(N3CCNCC3)c(F)cc2c1=O [Ciprofloxacin, ciprofloxacin, reference compound] : 0.007

Please find the next compound below.
Value of measured MIC for the entry CNC1CC12CCN(c1c(F)cc3c(=O)c(C(=O)O)cn(C4CC4)c3c1Cl)C2 (stereo not drawn) [Example 9] : 0.049
